Reported HLM is given for each of the following molecules.
Test: Microsomal stability assay, human liver microsomes;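 also: pooled human liver microsomes at 0.25 mg/mL with 1 µM compound and NADPH at 37 °C, pH 7.4, for 30 min, unchanged parent quantified by LC-MS/MS against the 0 min sample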
Conditions: human liver microsomal data

>  <Structure notation>
CO[C@H](C)C(=O)N[C@@H](Cc1cccc(-c2nccs2)c1F)[C@H](O)CN[C@H]1CC2(CCC2)Oc2ncc(CC(C)(C)C)cc21

>  <Unit spec>
µL/min/mg

>  <HLM>
76

$$$$
>  <Structure notation>
CO[C@@H](C)C(=O)N[C@@H](Cc1ccc2c(c1)OCO2)[C@H](O)CN[C@H]1CC2(CCC2)Oc2c1cc(CC(C)(C)C)nc2N(C)C

>  <Unit spec>
µL/min/mg

>  <HLM>
190

$$$$
>  <Structure notation>
CC[C@H](OC)C(=O)N[C@@H](Cc1ccc(F)cc1)[C@H](O)CN[C@H]1CC2(CCC2)Oc2ncc(CC(C)(C)C)cc21

>  <Unit spec>
µL/min/mg

>  <HLM>
290

$$$$
